Measured IC50, inhibiting the expression of COX-2, listed per entry.
system: COX-2; test: Inhibition of the expression of COX-2 in LPS-stimulated macrophages (Table 1); format: cell-based; settings: IC50 determined at multiple dose levels

Memo: C=C1C(=O)O[C@H]2[C@H]1CC/C(C)=C/CC[C@@]1(C)O[C@@H]21 [Compound 1, Parthenolide] , reported IC50, inhibiting the expression of COX-2: 0.2 µg/mL

Continuing:
Memo: C[C@@H]1C[C@@H]2OC(=O)[C@]3(C)[C@H]2[C@@H](OC3(C)O)[C@]2(C)C(=O)C=C[C@@H]12 (some centres unmarked) [Compound 10, Tenulin] , reported IC50, inhibiting the expression of COX-2: 5.5 µg/mL

Memo: CC1=C2[C@H]3OC(=O)[C@@H](C)[C@@H]3CC[C@@]2(C)C=CC1=O [Compound 13, Santonin, reference compound] , reported IC50, inhibiting the expression of COX-2: > 100 µg/mL

Memo: C=C1C(=O)O[C@@H]2/C=C(\C)[C@@H]3O[C@@H]3/C=C(/C(=O)OC)[C@H](O)[C@@H](OC(=O)[C@]3(C)O[C@@H]3C)[C@@H]12 [Compound 5, Melampodin A] , reported IC50, inhibiting the expression of COX-2: 0.5 µg/mL

Memo: C=C1C(=O)O[C@@H]2/C=C(\C)CC/C=C(\C)CC[C@@H]12 [Compound 9, Costunolide] , reported IC50, inhibiting the expression of COX-2: 1.6 µg/mL

Memo: CC1C(=O)OC2C1CCC1(C)OC1CCC1(C)OC21 (centres unmarked) [Compound 12, 1(10)epoxy-11,13-dihydroparthenolide] , reported IC50, inhibiting the expression of COX-2: > 100 µg/mL

Memo: CC1=CCCC2(C)OC2C2OC(=O)C(C)C2CC1 (centres unmarked) [Compound 11, 11,13-dihydroparthenolide] , reported IC50, inhibiting the expression of COX-2: > 100 µg/mL

Memo: C=C1C(=O)O[C@@H]2[C@H]1CC[C@H](C)[C@]1(CCC(=O)O1)[C@@]2(C)O [Compound 8, Psilostachyin A] , reported IC50, inhibiting the expression of COX-2: 1.3 µg/mL
